Test system: DU-145
method-description: NCI tumour cell line growth inhibition, 48 h
Activity calls are given as the source filed them. Cut-off read from the data, not from the text of the source: active = GI50 up to about 1.1 µM and inactive = higher.
GI50: recorded values

Worked cases, answers included:
>  <compound>
Cc1nn(C(=O)Cc2ccccc2)c2c1C(c1ccc(O)cc1O)SC(=N)N2 (stereo unspecified)

>  <target-system>
DU-145

>  <GI50>
> 100 µM (inactive)

$$$$
>  <compound>
NN=C(S)Nc1cccc(Cl)c1

>  <target-system>
DU-145

>  <GI50>
> 100 µM (inactive)

$$$$

# input // GI50 lookup, key: `C/C(=N/OC(=O)c1cccc2c(=O)c3ccccc3[nH]c12)[C@H]1CC[C@H]2[C@@H]3CCC4=C/C(=N/OC(=O)c5cccc6c(=O)c7ccccc7[nH]c56)CC[C@]4(C)[C@H]3CC[C@]12C`
# output 22.7 µM (inactive)

# input // GI50 lookup, key: `CC(C)(C)c1ccc(OCC(=O)O)c(Cl)c1`
# output > 100 µM (inactive)
